Recorded values, source ChEMBL document CHEMBL4715784.

System: MDA-MB-468
TEST NAME: Antiproliferative activity against human MDA-MB-468 cells harboring active STAT3 assessed as reduction in cell growth incubated for 24 hrs by CCK8 assay
Type: functional, cell-based
CONDITION LABEL: MDA-MB-468, 24 h
ASSAY ENDPOINT: pIC50
Numbers only, as −log10 of the molar value.

Which pIC50 is reported for this molecule? `O=C1c2ccccc2C(=O)c2cc(S(=O)(=O)Nc3ccc(O)cc3)ccc21` 5.29

---

STUDY SYSTEM: Signal transducer and activator of transcription 3 (Homo sapiens)
Sequence (P40763 whole entry): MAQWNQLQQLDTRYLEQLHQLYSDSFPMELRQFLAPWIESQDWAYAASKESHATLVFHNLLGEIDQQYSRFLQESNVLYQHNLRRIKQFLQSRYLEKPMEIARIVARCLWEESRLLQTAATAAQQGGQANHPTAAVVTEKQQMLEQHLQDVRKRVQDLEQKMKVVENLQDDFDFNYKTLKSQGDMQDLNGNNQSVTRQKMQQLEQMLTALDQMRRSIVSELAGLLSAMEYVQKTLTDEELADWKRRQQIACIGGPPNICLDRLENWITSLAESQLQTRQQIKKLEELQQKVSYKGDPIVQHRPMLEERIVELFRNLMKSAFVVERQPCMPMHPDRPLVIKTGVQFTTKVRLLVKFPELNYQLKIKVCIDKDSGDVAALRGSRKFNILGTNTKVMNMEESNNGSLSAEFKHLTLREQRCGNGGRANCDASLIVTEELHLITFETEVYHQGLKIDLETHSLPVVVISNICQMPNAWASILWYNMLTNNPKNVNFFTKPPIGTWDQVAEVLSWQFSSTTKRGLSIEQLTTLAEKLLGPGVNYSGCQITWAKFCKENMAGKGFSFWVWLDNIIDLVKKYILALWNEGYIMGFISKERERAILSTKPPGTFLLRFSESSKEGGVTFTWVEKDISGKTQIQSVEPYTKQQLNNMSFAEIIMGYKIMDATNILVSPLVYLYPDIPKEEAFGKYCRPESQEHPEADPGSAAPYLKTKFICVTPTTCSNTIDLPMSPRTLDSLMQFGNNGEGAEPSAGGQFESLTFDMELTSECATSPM
TEST NAME: Inhibition of STAT3-dependent transcriptional activity in human HeLa cells transfected with p-Luc-TKS3 assessed as reduction in luciferase expression incubated for 24 hrs by dual luciferase reporter gene assay
ASSAY ENDPOINT: pIC50
Numbers only, as −log10 of the molar value.

# get_value(readout= pIC50, system= Signal transducer and activator of transcription 3 (Homo sapiens)) for `O=C1c2ccccc2C(=O)c2cc(S(=O)(=O)Nc3ccc(O)cc3)ccc21` 4.90

---

TEST NAME: Binding affinity to STAT3 C712G mutant (unknown origin) expressed in Escherichia coli by CM5 sensor chip immobilization based SPR assay
Design: species or system Homo sapiens
ASSAY ENDPOINT: Kd
Please state the number and follow it with the unit.

Which Kd is reported for this compound? `O=C1c2ccccc2C(=O)c2cc(S(=O)(=O)Nc3ccc(O)cc3)ccc21` 18.5 µM

---

TEST NAME: Binding affinity to STAT3 K591A/S611G mutant (unknown origin) expressed in Escherichia coli by CM5 sensor chip immobilization based SPR assay
Design: species or system Homo sapiens
ASSAY ENDPOINT: pKd
Give bare numbers, as −log10 of the molar value.

Which pKd is reported for this compound? `O=C1c2ccccc2C(=O)c2cc(S(=O)(=O)Nc3ccc(O)cc3)ccc21` 5.32
